Assay: Cell viability, Cell-Titer Glo (ATP levels), Hek 293T
Assay type: cell-based
Conditions: human, Table 1; Hek 293T, 48 h; read-out: CC50
Listing of recorded CC50 by entry.
measurement.type: CC50

- CC(C)OC(=O)CCC/C=C\C[C@@H]1[C@@H](CC[C@@H](O)CCc2ccccc2)[C@H](O)C[C@@H]1O [Latanoprost]: 63.9 µM
- CCOc1ccc(Cc2nccc3cc(OCC)c(OCC)cc23)cc1OCC [Ethaverine]: 43.8 µM
- O=C(Nc1ccccc1)OCC(CN1CCCCC1)OC(=O)Nc1ccccc1 (centres unmarked) [Diperodon]: 41 µM
- C#C[C@]1(O)CC[C@H]2[C@@H]3CCc4cc(O)ccc4[C@H]3CC[C@@]21C [Ethynylestradiol]: 49.9 µM
- COCCCOc1ccnc(C[S+]([O-])c2nc3ccccc3[nH]2)c1C (centres unmarked) [Rabeprazol]: 38.1 µM

---

Record type: Activity index (Fusion % at CC50/CC50), TMPRSS2 measurement. Applies to: SARS-CoV-2 S-mediated membrane fusion in the presence of TMPRSS2
measurement.type: Activity index (Fusion % at CC50/CC50), TMPRSS2

- CCC(C)(C)C(=O)O[C@H]1C[C@@H](C)C=C2C=C[C@H](C)[C@H](CC[C@@H]3C[C@@H](O)CC(=O)O3)[C@H]21: 4,79
- COCCCOc1ccnc(C[S+]([O-])c2nc3ccccc3[nH]2)c1C (stereo not drawn): 6,39
- C#C[C@]1(O)CC[C@H]2[C@@H]3CCc4cc(O)ccc4[C@H]3CC[C@@]21C: 6,27
- O=C(Nc1ccccc1)OCC(CN1CCCCC1)OC(=O)Nc1ccccc1 (stereo not drawn): 3,39
- CCOc1ccc(Cc2nccc3cc(OCC)c(OCC)cc23)cc1OCC: 9,56
- CC(C)OC(=O)CCC/C=C\C[C@@H]1[C@@H](CC[C@@H](O)CCc2ccccc2)[C@H](O)C[C@@H]1O: 2,39

---

Test system: Vero E6 cells
Assay: Cell viability, Cell-Titer Glo (ATP levels), Vero E6
Assay type: cell-based
Conditions: 48 h, Fig. 6C
Think of 20 µM as a floor: if Vero E6 CC10 stands on it or above, it is true; beneath it, false.

• COCCCOc1ccnc(C[S+]([O-])c2nc3ccccc3[nH]2)c1C (stereo not drawn) [Rabeprazol] = true
• CC(C)OC(=O)CCC/C=C\C[C@@H]1[C@@H](CC[C@@H](O)CCc2ccccc2)[C@H](O)C[C@@H]1O [Latanoprost] = true
• C#C[C@]1(O)CC[C@H]2[C@@H]3CCc4cc(O)ccc4[C@H]3CC[C@@]21C [Ethynylestradiol] = false
• CCOc1ccc(Cc2nccc3cc(OCC)c(OCC)cc23)cc1OCC [Ethaverine] = true
• O=C(Nc1ccccc1)OCC(CN1CCCCC1)OC(=O)Nc1ccccc1 (stereo not drawn) [Diperodon] = true
• CCC(C)(C)C(=O)O[C@H]1C[C@@H](C)C=C2C=C[C@H](C)[C@H](CC[C@@H]3C[C@@H](O)CC(=O)O3)[C@H]21 [Simvastatin] = false

---

Values of Fusion % at CC50, TMPRSS2 reported for SARS-CoV-2 S-mediated membrane fusion in the presence of TMPRSS2 appear below.
measurement.type: Fusion % at CC50, TMPRSS2

• CCOc1ccc(Cc2nccc3cc(OCC)c(OCC)cc23)cc1OCC = 419,22%
• CCC(C)(C)C(=O)O[C@H]1C[C@@H](C)C=C2C=C[C@H](C)[C@H](CC[C@@H]3C[C@@H](O)CC(=O)O3)[C@H]21 = 163,57%
• C#C[C@]1(O)CC[C@H]2[C@@H]3CCc4cc(O)ccc4[C@H]3CC[C@@]21C = 312,60%
• COCCCOc1ccnc(C[S+]([O-])c2nc3ccccc3[nH]2)c1C (stereo not drawn) = 243,51%
• CC(C)OC(=O)CCC/C=C\C[C@@H]1[C@@H](CC[C@@H](O)CCc2ccccc2)[C@H](O)C[C@@H]1O = 152,75%
• O=C(Nc1ccccc1)OCC(CN1CCCCC1)OC(=O)Nc1ccccc1 (stereo not drawn) = 138,77%

Data provenance: paper PMC10206591
